This collection of values is drawn from the supplement of paper PMC8728848.

- experimental-system: Neu5Ac(a2-3)Gal(b1-3)[GlcNAc(b1-6)]GalNAc
- protocol-notes: glycan array binding signal (z-score within array); higher = stronger binding
- details: glycan notation: IUPAC condensed, linker removed
This excerpt belongs to a sample that is enriched for the strongest signals.
List of glycan array binding signal (z-score) values.
property-measured: glycan array binding signal (z-score)

>>> data_value("PpFlo2 (Pichia pastoris) (protein) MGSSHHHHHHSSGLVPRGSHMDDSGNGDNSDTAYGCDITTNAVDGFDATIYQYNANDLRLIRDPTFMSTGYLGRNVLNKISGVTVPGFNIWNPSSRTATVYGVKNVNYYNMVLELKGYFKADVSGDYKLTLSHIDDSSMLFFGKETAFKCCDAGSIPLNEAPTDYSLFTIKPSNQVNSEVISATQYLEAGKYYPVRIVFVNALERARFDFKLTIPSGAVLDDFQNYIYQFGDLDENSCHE")
0.351
>>> data_value("UDA (Urtica dioica), P11218 (protein) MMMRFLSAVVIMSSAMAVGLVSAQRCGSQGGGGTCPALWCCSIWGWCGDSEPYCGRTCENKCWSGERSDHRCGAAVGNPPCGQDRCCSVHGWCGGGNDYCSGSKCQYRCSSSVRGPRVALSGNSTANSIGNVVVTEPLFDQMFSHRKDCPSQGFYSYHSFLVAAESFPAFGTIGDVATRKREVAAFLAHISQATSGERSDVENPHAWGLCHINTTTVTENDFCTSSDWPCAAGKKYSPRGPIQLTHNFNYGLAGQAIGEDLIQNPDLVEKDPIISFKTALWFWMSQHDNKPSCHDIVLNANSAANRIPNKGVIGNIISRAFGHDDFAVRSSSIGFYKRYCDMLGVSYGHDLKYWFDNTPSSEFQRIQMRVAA")
-0.176
>>> data_value("his-Lectin-24A (Drosophila melanogaster) (protein) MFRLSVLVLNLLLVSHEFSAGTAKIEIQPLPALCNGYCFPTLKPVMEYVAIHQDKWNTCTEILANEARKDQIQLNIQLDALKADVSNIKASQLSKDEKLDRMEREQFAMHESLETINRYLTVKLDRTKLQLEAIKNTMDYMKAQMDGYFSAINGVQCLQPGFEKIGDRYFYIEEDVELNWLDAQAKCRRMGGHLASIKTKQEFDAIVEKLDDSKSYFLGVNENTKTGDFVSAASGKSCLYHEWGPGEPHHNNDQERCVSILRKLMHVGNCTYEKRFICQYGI")
-0.036
>>> data_value("RsaA-N-term (Caulobacter crescentus), P35828 (protein) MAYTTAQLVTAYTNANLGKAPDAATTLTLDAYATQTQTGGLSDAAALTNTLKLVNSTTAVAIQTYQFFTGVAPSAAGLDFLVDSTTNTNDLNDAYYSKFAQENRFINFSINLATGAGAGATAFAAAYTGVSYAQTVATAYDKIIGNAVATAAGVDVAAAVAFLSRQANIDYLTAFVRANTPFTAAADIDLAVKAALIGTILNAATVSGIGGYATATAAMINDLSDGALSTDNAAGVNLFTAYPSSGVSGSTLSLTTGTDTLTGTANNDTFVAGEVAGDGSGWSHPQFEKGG")
-1.21
